AC50 at 72 h values by entry
Experimental details: Cell viability (cytotoxicity, MTT) using HepG2
Format: cell-based, human
Setup conditions: human, HepG2 cells, 72 h, summary sheet, read-out: MTT (AC50) Conc at which 50% of maximum efficacy is reached
Your answer is read as µM, so omit the unit and give the number.

Examples with answers:
Oc1cc(Cl)cc2c1NC(c1ccccc1)C1CC=CC21 (centres unmarked)	19.6
O=[N+]([O-])c1c(Cl)cc(O)c2c1C1C=CCC1C(c1ccc(Cl)cc1Cl)N2 (centres unmarked)	12.4

IN: Entry under review: Cc1[nH]nc(-c2ccc(O)c(C)c2O)c1-c1nc2ccccc2s1 . Reported AC50 at 72 h?
OUT: 23.7

IN: Entry under review: Oc1cc(Cl)cc2c1NC(c1ccc(Cl)cc1)C1CC=CC21 (centres unmarked) . Reported AC50 at 72 h?
OUT: 17.5

IN: Entry under review: CC1(C)Cc2cccc(OCC(=O)Nc3nc4ccccc4s3)c2O1 . Reported AC50 at 72 h?
OUT: 58.7

IN: Entry under review: O=[N+]([O-])c1c(Cl)cc(O)c2c1C1C=CCC1C(c1ccc(Cl)cc1)N2 (centres unmarked) . Reported AC50 at 72 h?
OUT: 7.02

IN: Entry under review: N#Cc1c(Cl)cc(O)c2c1C1C=CCC1C(c1ccc(Cl)cc1)N2 (centres unmarked) . Reported AC50 at 72 h?
OUT: 5.24
